All values here come from patent US8802597B2.

Documented Pigweed plant response rating across a set of molecules
tested on: pigweed (Amaranthus retroflexus); assay: Test C pre/postemergence; type: in vivo; details: Postemergence, 62 g ai/ha; scale 0 to 100 (0 no effect, 100 complete control)
In your answer, state the number alone without any accompanying words.

Molecule: CN(C)N=Cc1nc(C2CC2)nc(N)c1Br [Compound 50]
Endpoint label: Pigweed plant response rating
Result number: 75
//
Molecule: Nc1nc(C2CC2)nc(C=NO)c1Br [Compound 27]
Endpoint label: Pigweed plant response rating
Result number: 5
//
Molecule: CCOC(=O)c1nc(-c2ccc(Cl)cc2)nc(N)c1Br [Compound 37]
Endpoint label: Pigweed plant response rating
Result number: 0

IN: # lookup: Pigweed plant response rating of COC(=O)c1nc(C2CC2C)nc(N)c1Br (stereo not shown) [Compound 28]
OUT: 30
